Biological target: recombinant human Estrogen Receptor alpha ligand binding domain, residues 307-554 (ER alpha-LBD (GST)) (Homo sapiens)
Sequence (P03372 307-554): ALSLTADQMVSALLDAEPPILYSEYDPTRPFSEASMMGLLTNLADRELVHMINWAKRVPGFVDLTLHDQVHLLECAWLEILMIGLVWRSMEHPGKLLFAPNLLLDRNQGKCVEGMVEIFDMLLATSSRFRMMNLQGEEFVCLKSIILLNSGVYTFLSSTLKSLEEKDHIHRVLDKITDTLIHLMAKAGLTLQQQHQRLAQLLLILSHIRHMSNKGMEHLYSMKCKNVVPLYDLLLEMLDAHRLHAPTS
Assay: ERα binding assay (LanthaScreen TR-FRET competition)
Details: TR-FRET competition with Fluormone ES2 tracer, 4 hours at room temperature; single experiment or average of two or more
REPORTED METRIC: IC50 (nM)
// units = nM; emit number, no label

Answered cases to consult:
Cc1ncsc1-c1ccc(CNC(=O)[C@@H]2C[C@@H](O)CN2C(=O)[C@@H](NC(=O)COCCOCCOCCOc2cc(F)c([C@@H]3c4[nH]c5ccccc5c4C[C@@H](C)N3CC(F)(F)CO)c(F)c2)C(C)(C)C)cc1 ... 1.3
Cc1ncsc1-c1ccc(CNC(=O)[C@@H]2C[C@@H](O)CN2C(=O)[C@@H](NC(=O)COCCCCOCCCOc2cc(F)c([C@@H]3c4[nH]c5ccccc5c4C[C@@H](C)N3CC(C)(C)F)c(F)c2)C(C)(C)C)cc1 ... 0.7
Cc1ncsc1-c1ccc(CNC(=O)[C@@H]2C[C@@H](O)CN2C(=O)[C@@H](NC(=O)COCCOCCCCOc2cc(F)c([C@@H]3c4[nH]c5ccccc5c4C[C@@H](C)N3CC(C)(C)F)c(F)c2)C(C)(C)C)cc1 ... 0.6

Lab note: "Cc1ncsc1-c1ccc(CNC(=O)[C@@H]2C[C@@H](O)CN2C(=O)[C@@H](NC(=O)CCCCCCCCCOc2cc(F)c([C@@H]3c4[nH]c5ccccc5c4C[C@@H](C)N3CC(C)(C)F)c(F)c2)C(C)(C)C)cc1" gave IC50 of 1.5

Measured IC50 of "Cc1ncsc1-c1ccc(CNC(=O)[C@@H]2C[C@@H](O)CN2C(=O)[C@@H](NC(=O)C(F)(F)OCCCOCCCOc2cc(F)c([C@@H]3c4[nH]c5ccccc5c4C[C@@H](C)N3CC(C)(C)F)c(F)c2)C(C)(C)C)cc1" : 0.8

Per the records, this compound ( "Cc1ncsc1-c1ccc(CNC(=O)[C@@H]2C[C@@H](O)CN2C(=O)[C@@H](NC(=O)COCc2ccc(OCCOc3cc(F)c([C@@H]4c5[nH]c6ccccc6c5C[C@@H](C)N4CC(C)(C)F)c(F)c3)cc2)C(C)(C)C)cc1" ) has IC50 equal to 0.8

Please fill in: IC50 reported for "Cc1ncsc1-c1ccc(CNC(=O)[C@@H]2C[C@@H](O)CN2C(=O)[C@@H](NC(=O)COCc2cccc(COc3cc(F)c([C@@H]4c5[nH]c6ccccc6c5C[C@@H](C)N4CC(C)(C)F)c(F)c3)n2)C(C)(C)C)cc1" = 0.5

The measured IC50 associated with "Cc1ncsc1-c1ccc(CNC(=O)[C@@H]2C[C@@H](O)CN2C(=O)[C@@H](NC(=O)COCCOCCNC(=O)/C=C/c2cc(F)c([C@@H]3c4[nH]c5ccccc5c4C[C@@H](C)N3CC(C)(C)F)c(F)c2)C(C)(C)C)cc1" reads 0.9

// field: IC50; key: "Cc1ncsc1-c1ccc(CNC(=O)[C@@H]2C[C@@H](O)CN2C(=O)[C@@H](NC(=O)CCCOCCCCCCOc2cc(F)c([C@@H]3c4[nH]c5ccccc5c4C[C@@H](C)N3CC(C)(C)F)c(F)c2)C(C)(C)C)cc1" ; value = 0.5

###

molecular target: Estrogen Receptor (ERα) in MCF-7 human ductal carcinoma breast cell line (Homo sapiens, UniProt P03372); construct: endogenous in cells; host or cells: MCF-7; assay: MCF-7 ER degradation assay (cell based immuno-fluorescence); details: MCF-7 cells, 0.3 μM; ER degradation by fulvestrant at 0.3 μM is defined as 100%
REPORTED METRIC: ER degradation ≥ 90% at 0.3 μM

Cc1ncsc1-c1ccc(CNC(=O)[C@@H]2C[C@@H](O)CN2C(=O)[C@@H](NC(=O)COCCOc2ccc(COc3cc(F)c([C@@H]4c5[nH]c6ccccc6c5C[C@@H](C)N4CC(C)(C)F)c(F)c3)cc2)C(C)(C)C)cc1 [Example 5] ... •
Cc1ncsc1-c1ccc(CNC(=O)[C@@H]2C[C@@H](O)CN2C(=O)[C@@H](NC(=O)C2(OCCCOCCCOc3cc(F)c([C@@H]4c5[nH]c6ccccc6c5C[C@@H](C)N4CC(C)(C)F)c(F)c3)CC2)C(C)(C)C)cc1 [Example 135] ... •

###

Target: recombinant human Estrogen Receptor alpha ligand binding domain, residues 307-554 (ER alpha-LBD (GST)) (Homo sapiens, UniProt P03372)
Sequence (P03372 307-554): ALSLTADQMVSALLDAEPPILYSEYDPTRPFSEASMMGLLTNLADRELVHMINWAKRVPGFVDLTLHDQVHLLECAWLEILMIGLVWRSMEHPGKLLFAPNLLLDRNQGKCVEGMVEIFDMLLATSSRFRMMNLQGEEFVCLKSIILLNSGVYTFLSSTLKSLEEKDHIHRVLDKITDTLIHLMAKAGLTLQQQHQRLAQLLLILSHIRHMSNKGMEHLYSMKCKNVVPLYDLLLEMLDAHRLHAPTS
Experiment: ERα binding assay (LanthaScreen TR-FRET competition)
Settings: TR-FRET competition with Fluormone ES2 tracer, 4 hours at room temperature; single experiment or average of two or more
REPORTED METRIC: IC50 (nM)
Report only the number, with the unit nM understood.

Cc1ncsc1-c1ccc(CNC(=O)[C@@H]2C[C@@H](O)CN2C(=O)[C@@H](NC(=O)CCCCCOCCCCOc2cc(F)c([C@@H]3c4[nH]c5ccccc5c4C[C@@H](C)N3CC(C)(C)F)c(F)c2)C(C)(C)C)cc1 ... 0.6
Cc1ncsc1-c1ccc(CNC(=O)[C@@H]2C[C@@H](O)CN2C(=O)[C@@H](NC(=O)Cc2ccc(OCCOCCNC(=O)/C=C/c3cc(F)c([C@@H]4c5[nH]c6ccccc6c5C[C@@H](C)N4CC(C)(C)F)c(F)c3)cc2)C(C)(C)C)cc1 ... 1.2
Cc1ncsc1-c1ccc(CNC(=O)[C@@H]2C[C@@H](O)CN2C(=O)[C@@H](NC(=O)COCCCCCOCCOc2cc(F)c([C@@H]3c4[nH]c5ccccc5c4C[C@@H](C)N3CC(C)(C)F)c(F)c2)C(C)(C)C)cc1 ... 0.8

Here is the next item to consider.
compound "Cc1ncsc1-c1ccc(CNC(=O)[C@@H]2C[C@@H](O)CN2C(=O)[C@@H](NC(=O)COCCCOCCCOc2cc(F)c([C@@H]3c4[nH]c5ccccc5c4C[C@@H](C)N3CC(C)(C)F)c(F)c2)C(C)(C)C)cc1" , IC50 observed: 0.6

###

IC50 values for the molecules below.
biological target: recombinant human Estrogen Receptor alpha ligand binding domain, residues 307-554 (ER alpha-LBD (GST)) (Homo sapiens); test: ERα binding assay (LanthaScreen TR-FRET competition); conditions: TR-FRET competition with Fluormone ES2 tracer, 4 hours at room temperature; single experiment or average of two or more
Numbers only; they are read as nM.

Cc1ncsc1-c1ccc([C@H](C)NC(=O)[C@@H]2C[C@@H](O)CN2C(=O)[C@@H](NC(=O)COCCOCCCCCOc2cc(F)c([C@@H]3c4[nH]c5ccccc5c4C[C@@H](C)N3CC(F)(F)F)c(F)c2)C(C)(C)C)cc1 ... 0.5
Cc1ncsc1-c1ccc(CNC(=O)[C@@H]2C[C@@H](O)CN2C(=O)[C@@H](NC(=O)COCCCCCCCOc2cc(F)c([C@@H]3c4[nH]c5ccccc5c4C[C@@H](C)N3CC(F)(F)CO)c(F)c2)C(C)(C)C)cc1 ... 0.5
Cc1ncsc1-c1ccc(CNC(=O)[C@@H]2C[C@@H](O)CN2C(=O)[C@@H](NC(=O)COCCOCCOCCOCCOc2cc(F)c([C@@H]3c4[nH]c5ccccc5c4C[C@@H](C)N3CC(C)(C)F)c(F)c2)C(C)(C)C)cc1 ... 6.4

Query molecule follows.
The value of IC50 measured for the molecule "Cc1ncsc1-c1ccc(CNC(=O)[C@@H]2C[C@@H](O)CN2C(=O)[C@@H](NC(=O)COCCCCOCCOc2ccc([C@@H]3c4[nH]c5ccccc5c4C[C@@H](C)N3CC(F)F)nc2)C(C)(C)C)cc1" turned out to be 18

###

Target: recombinant human Estrogen Receptor alpha ligand binding domain, residues 307-554 (ER alpha-LBD (GST)) (Homo sapiens)
Assay: ERα binding assay (LanthaScreen TR-FRET competition)
Details: TR-FRET competition with Fluormone ES2 tracer, 4 hours at room temperature; single experiment or average of two or more
Experimental: The ability of compounds to bind to isolated Estrogen Receptor Alpha Ligand binding domain (ER alpha-LBD (GST)) was assessed in competition assays using a LanthaScreen™ Time-Resolved Fluorescence Resonance Energy Transfer (TR-FRET) detection end-point. […]
Listed molecules paired with reported pIC50
To interpret pIC50, take it as minus log10 of a concentration measured in moles per litre.

Previously resolved entries follow.
Cc1ncsc1-c1ccc(CNC(=O)[C@@H]2C[C@@H](O)CN2C(=O)[C@@H](NC(=O)COCCOCCCCCOc2cnc([C@@H]3c4[nH]c5ccccc5c4C[C@@H](C)N3CC(F)(F)F)c(F)c2)C(C)(C)C)cc1 ... 7.94
Cc1ncsc1-c1ccc(CNC(=O)[C@@H]2C[C@@H](O)CN2C(=O)[C@@H](NC(=O)CCCCCCCCCCOc2cc(F)c([C@@H]3c4[nH]c5ccccc5c4C[C@@H](C)N3CC(C)(C)F)c(F)c2)C(C)(C)C)cc1 ... 8.64

// sample "Cc1ncsc1-c1ccc(CNC(=O)[C@@H]2C[C@@H](O)CN2C(=O)[C@@H](NC(=O)COCc2ccc(COc3cc(F)c([C@@H]4c5[nH]c6ccccc6c5C[C@@H](C)N4CC(C)(C)F)c(F)c3)nc2)C(C)(C)C)cc1" , its pIC50 was 9.05

Value of pIC50 reported for the molecule "Cc1ncsc1-c1ccc(CNC(=O)[C@@H]2C[C@@H](O)CN2C(=O)[C@@H](NC(=O)COCCOCCCCCOc2cnc([C@@H]3c4[nH]c5ccccc5c4C[C@@H](C)N3CC(C)(F)F)c(F)c2)C(C)(C)C)cc1" is 8.18

Documented pIC50 of "Cc1ncsc1-c1ccc(CNC(=O)[C@@H]2C[C@@H](O)CN2C(=O)[C@@H](NC(=O)COCCc2ccc(COc3cc(F)c([C@@H]4c5[nH]c6ccccc6c5C[C@@H](C)N4CC(C)(C)F)c(F)c3)nc2)C(C)(C)C)cc1" : 9.10

The measured pIC50 associated with "Cc1ncsc1-c1ccc(CNC(=O)[C@@H]2C[C@@H](O)CN2C(=O)[C@@H](NC(=O)COCCCCCOCCCOc2cc(F)c([C@@H]3c4[nH]c5ccccc5c4C[C@@H](C)N3CC(C)(C)F)c(F)c2)C(C)(C)C)cc1" reads 8.92
